Measured values drawn from ChEMBL document CHEMBL1275532 for this set.

# assay_remarks: Cytotoxicity against human NTZ-11 cell harboring HCV genotype 1b after 4 days by neutral red dye uptake assay
# Type: cell-based
# assay_conditions: NTZ-11 cells harboring HCV genotype 1b
readout_type: CC50 at 96 h

What does the data say about its CC50 at 96 h? Entry: C[C@@]1(O)[C@H](O)[C@@H](CO)O[C@H]1n1ccc(N)nc1=O > 300 µM

Which CC50 at 96 h value belongs to NC(=O)c1ncn([C@@H]2O[C@H](CO)[C@@H](O)[C@H]2O)n1 [RIBAVIRIN] ? 66 µM

What does the record list as CC50 at 96 h for O=C(Nc1ncc([N+](=O)[O-])s1)c1ccccc1O [TIZOXANIDE] ? 74 µM

CC50 at 96 h lookup needed for CC(=O)Oc1ccccc1C(=O)Nc1ncc([N+](=O)[O-])s1 [NITAZOXANIDE] , thanks. 68 µM

----------
Exercise: for every item that follows, state its recorded EC50.
# System: Hepatitis C virus
# assay_remarks: Antiviral activity against HCV genotype 1b in NTZ-11 replicon cell after 4 days by blot hybridization analysis
# Assay type: functional, organism-based, Hepacivirus hominis
# assay_conditions: NTZ-11, 96 h
Reply numerically in nM, unit not repeated.

Form field - read-out: EC50; system: Hepatitis C virus; submitted item: CC(=O)Oc1ccccc1C(=O)Nc1ncc([N+](=O)[O-])s1 [NITAZOXANIDE] 1200

What EC50 appears in the records for this compound with Hepatitis C virus? NC(=O)c1ncn([C@@H]2O[C@H](CO)[C@@H](O)[C@H]2O)n1 47000

Missing value: EC50, Hepatitis C virus, entry C[C@@]1(O)[C@H](O)[C@@H](CO)O[C@H]1n1ccc(N)nc1=O . Fill in? 1900

Report EC50 for O=C(Nc1ncc([N+](=O)[O-])s1)c1ccccc1O [TIZOXANIDE] tested on Hepatitis C virus. 1100

----------
# Tested on: Hepatitis C virus
# assay_remarks: Antiviral activity against HCV genotype 1b in RP7 replicon cell after 4 days by blot hybridization analysis
# Format: functional, organism-based, Hepacivirus hominis
# assay_conditions: 96 h
readout_type: pEC50
Scale note: pEC50 = -log10(concentration in M).

Tell me the measured pEC50 of O=C(Nc1ncc([N+](=O)[O-])s1)c1ccccc1O [TIZOXANIDE] , please. 6.82

Entry under review: NC(=O)c1ncn([C@@H]2O[C@H](CO)[C@@H](O)[C@H]2O)n1 [RIBAVIRIN] . Reported pEC50? 4.16

# get_value(readout='pEC50', item= CC(=O)Oc1ccccc1C(=O)Nc1ncc([N+](=O)[O-])s1 [NITAZOXANIDE] ) 6.80

// query pEC50 value for entry C[C@@]1(O)[C@H](O)[C@@H](CO)O[C@H]1n1ccc(N)nc1=O 5.70

----------
Answer each item with its documented CC50 at 96 h.
# assay_remarks: Cytotoxicity against human RP7 cell harboring HCV genotype 1b after 4 days by neutral red dye uptake assay
# Type: cell-based
# assay_conditions: RP7 cells harboring HCV genotype 1b
Give the number; µM is assumed, so skip it.

Would you kindly share the measured CC50 at 96 h for NC(=O)c1ncn([C@@H]2O[C@H](CO)[C@@H](O)[C@H]2O)n1 [RIBAVIRIN] ? 77

Request the reported CC50 at 96 h associated with CC(=O)Oc1ccccc1C(=O)Nc1ncc([N+](=O)[O-])s1 [NITAZOXANIDE] 38

I have this molecule here, O=C(Nc1ncc([N+](=O)[O-])s1)c1ccccc1O [TIZOXANIDE] , and I need its recorded CC50 at 96 h. 25

----------
# System: Hepatitis C virus
# assay_remarks: Antiviral activity against HCV genotype 1b in replicon system
# Type: functional, organism-based, Hepacivirus hominis
readout_type: EC50

Recorded EC50 for O=C(Nc1ncc([N+](=O)[O-])s1)c1ccccc1O [TIZOXANIDE] , please? 150 nM

----------
# assay_remarks: Selectivity Index, ratio of CC50 for TIZ-9 cell harboring HCV genotype 1b to EC50 for HCV genotype 1b in TIZ-9 replicon cell
Consider the following molecules; for each one, report its Ratio CC50/EC50.
Answer as a number with no unit attached.

So what does the record say about Ratio CC50/EC50 for CC(=O)Oc1ccccc1C(=O)Nc1ncc([N+](=O)[O-])s1 [NITAZOXANIDE] ? 65

Can you share its Ratio CC50/EC50? I mean this molecule: NC(=O)c1ncn([C@@H]2O[C@H](CO)[C@@H](O)[C@H]2O)n1 [RIBAVIRIN] 1.8

What measured Ratio CC50/EC50 goes with O=C(Nc1ncc([N+](=O)[O-])s1)c1ccccc1O [TIZOXANIDE] ? 46

----------
I'd appreciate it if you could supply CC50 at 96 h values for the items below.
# assay_remarks: Cytotoxicity against human TIZ-9 cell harboring HCV genotype 1b after 4 days by neutral red dye uptake assay
# Format: cell-based
# assay_conditions: TIZ-9 cells harboring HCV genotype 1b
// note: answer is a bare numeric in µM

Quick one: CC50 at 96 h of CC(=O)Oc1ccccc1C(=O)Nc1ncc([N+](=O)[O-])s1 [NITAZOXANIDE] ? 97

Entry NC(=O)c1ncn([C@@H]2O[C@H](CO)[C@@H](O)[C@H]2O)n1 has what CC50 at 96 h? 95

Looking for the measured CC50 at 96 h of O=C(Nc1ncc([N+](=O)[O-])s1)c1ccccc1O [TIZOXANIDE] , can you help? 92
